Target: T1, human iRhom2, endogenously expressed (human, UniProt Q6PJF5 1-856)
T1 construct: also called RHBDF2
T1 sequence: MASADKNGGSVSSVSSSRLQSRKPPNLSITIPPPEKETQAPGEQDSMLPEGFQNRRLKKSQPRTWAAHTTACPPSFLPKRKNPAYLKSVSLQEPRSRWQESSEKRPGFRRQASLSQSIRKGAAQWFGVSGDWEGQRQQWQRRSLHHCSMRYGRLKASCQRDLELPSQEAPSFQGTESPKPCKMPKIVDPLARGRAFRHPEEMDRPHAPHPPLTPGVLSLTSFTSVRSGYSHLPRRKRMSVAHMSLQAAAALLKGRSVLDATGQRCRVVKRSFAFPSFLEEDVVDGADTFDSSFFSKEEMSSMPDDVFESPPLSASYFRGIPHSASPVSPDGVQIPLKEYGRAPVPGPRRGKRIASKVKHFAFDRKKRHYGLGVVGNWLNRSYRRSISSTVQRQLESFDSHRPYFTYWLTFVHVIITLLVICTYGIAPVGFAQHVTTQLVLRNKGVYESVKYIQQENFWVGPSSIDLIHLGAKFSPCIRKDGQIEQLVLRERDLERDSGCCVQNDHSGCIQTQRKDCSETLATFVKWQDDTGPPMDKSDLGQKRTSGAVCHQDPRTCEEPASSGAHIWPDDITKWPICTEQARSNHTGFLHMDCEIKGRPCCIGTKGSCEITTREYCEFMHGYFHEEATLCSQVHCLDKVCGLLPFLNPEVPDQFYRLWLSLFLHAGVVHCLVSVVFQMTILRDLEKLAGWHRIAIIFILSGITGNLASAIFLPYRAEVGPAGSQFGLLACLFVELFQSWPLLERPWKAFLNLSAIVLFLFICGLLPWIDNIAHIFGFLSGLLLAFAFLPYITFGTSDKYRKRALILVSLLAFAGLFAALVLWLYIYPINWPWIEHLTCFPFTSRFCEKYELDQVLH
Assay: indirect FACS scatchard analysis on THP-1 cells
Kd values, listed per item
A number alone suffices; assume nM.

{"columns": ["binder", "value"],
 "data": [
  ["antibody 42 (antibody, V domains shown, mouse IgG, kappa light chain; also called clone #42; purified antibody 42) VH: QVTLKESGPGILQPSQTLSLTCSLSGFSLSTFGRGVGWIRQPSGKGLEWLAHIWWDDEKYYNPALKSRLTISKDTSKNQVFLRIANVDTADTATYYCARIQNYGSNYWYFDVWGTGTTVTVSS VL: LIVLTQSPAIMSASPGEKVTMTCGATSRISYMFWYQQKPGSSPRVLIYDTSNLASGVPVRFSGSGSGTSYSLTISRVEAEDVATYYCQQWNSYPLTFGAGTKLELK", 1.9]
]}

*Q* So what's the measured Kd for this one? antibody 3 (antibody, V domains shown, mouse IgG, kappa light chain; also called clone #3; purified antibody 3) VH: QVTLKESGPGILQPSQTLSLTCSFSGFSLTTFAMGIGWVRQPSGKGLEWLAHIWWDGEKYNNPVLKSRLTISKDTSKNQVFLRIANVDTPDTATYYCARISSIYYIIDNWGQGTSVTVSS VL: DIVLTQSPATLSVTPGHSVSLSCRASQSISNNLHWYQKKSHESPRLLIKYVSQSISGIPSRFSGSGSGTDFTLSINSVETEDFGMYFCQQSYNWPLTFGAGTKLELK
*A* 2.97

*Q* Would you mind doing antibody 5 (antibody, V domains shown, mouse IgG, kappa light chain; also called clone #5; purified antibody 5) VH: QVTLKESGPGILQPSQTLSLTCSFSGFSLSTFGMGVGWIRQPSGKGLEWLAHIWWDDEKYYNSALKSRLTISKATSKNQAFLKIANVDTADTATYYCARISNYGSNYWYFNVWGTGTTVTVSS VL: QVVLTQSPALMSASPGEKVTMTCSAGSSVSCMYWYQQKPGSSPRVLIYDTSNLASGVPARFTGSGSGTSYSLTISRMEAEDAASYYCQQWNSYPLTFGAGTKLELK as well?
*A* 3.35
